# RUN DESCRIPTION: NCI Yeast Anticancer Drug Screen. Data for the bub3 strain (AID 167)
# MEASUREMENT CONTEXT: S. cerevisiae bub3 mutant strain, at 50.0 µM, stronger effect = higher value
The panel holds about 79,000 compounds, 15% with a hit somewhere; the sample as a whole holds those more often.
READOUT LABEL: growth inhibition (%)
One number for each entry, in %.

Please state growth inhibition for every molecule in the list that follows.
1. Cc1cc([N+](=O)[O-])c2ncccc2c1
2. CC(C)c1cccc(C(C)C)c1NC(=O)OC1CCCCC1C (centres undefined)
3. CCNC(=O)CCP(=O)(CCC(=O)NCC)CCC(=O)NCC
4. O=C(O)COc1ccc2ccccc2c1
5. CCOC(=O)c1cc(-c2ccccc2)nc2nc(N)ccc12
6. Cc1ccc(S(=O)(=O)NC(=O)NCCCS(C)=O)cc1 (centres undefined)
7. NC1(C(=O)O)CC(O)(c2ccccc2)C(O)(c2ccccc2)C1 (centres undefined)
8. CC(C)Cn1cnc2c(Sc3c([N+](=O)[O-])ncn3C)nc(N)nc21

[-15.7, -4.65, -6.7, 4.15, 13.2, 2.9, 3.75, 2.1]

Provide each entry's growth inhibition from the list below.
1. N=C(N)SCc1cccc(-c2nc3ccccc3c(=O)o2)c1
2. Nc1nc(N)c2c(n1)Nc1ccc(Cl)nc1S2
3. COC(=O)c1ccc(SCCC(=O)CNc2nc(N)nc(N)c2[N+](=O)[O-])cc1
4. NCCn1[nH]c(=O)c2ncccc2c1=O

1: 20.8; 2: 81.1; 3: -0.2; 4: -6.6

Items follow; give growth inhibition for each.
1. Clc1nc(-c2ccccc2)nc2ccccc12
2. C/C(CCc1ccccc1)=N\Nc1ccc([N+](=O)[O-])cc1[N+](=O)[O-]
3. C=C(C)C(=O)OC1C/C(CO)=C\C(O)C/C(C)=C/C2OC(=O)C(=C)C21 (centres undefined)
4. O=C(O)C(=O)O.[Co+3].[NH-]C(Cc1ccccc1)C(=O)[O-].[NH-]CCN(CC[NH-])CC[NH-] (centres undefined)
5. Nc1ccc([N+](=O)[O-])cc1F
6. O=C1C(c2ccccc2)=C(c2ccccc2)/C1=C\c1ccc(Cl)cc1Cl
7. C(=C/c1ccccc1)/C=N/N1CCN(/N=C/C=C/c2ccccc2)CC1
8. CSCCC(NC(=O)CCCOc1ccc(Cl)cc1C)C(=O)O (centres undefined)

1. -19.8
2. -17.4
3. 41.5
4. 2.7
5. 3.95
6. 5.5
7. 18.5
8. -0.9

----------
Please provide measured growth inhibition for the entries that follow.
# RUN DESCRIPTION: NCI Yeast Anticancer Drug Screen. Data for the mec2-1 strain (AID 157)
# MEASUREMENT CONTEXT: S. cerevisiae mec2-1 strain, at 50.0 µM, stronger effect = higher value
Compounds without any hit were thinned out: in the full panel of roughly 79,000, 15% have a hit.
One number for each entry, in %.

// solved cases for growth inhibition follow
CC1(C)C2CCC1(C)C1(C2)OC(CCl)CS1 (configuration not stated) : -13.8
Cc1ccc(S(=O)(=O)N2c3ccccc3[C@H]3CCC=C[C@H]32)cc1 : 17.8
CCC1CN2C(=N1)c1ccccc1-c1cc([N+](=O)[O-])ccc12 (configuration not stated) : 43
CCN(CC)C(=O)CNC(=O)c1c2nc3c(C(=O)NCC(=O)N(CC)CC)ccc(C)c3oc-2c(C)c(=O)c1N : 33.9
O=c1n(-c2ccccc2)c(=O)n2n1C1C3C4C5C1C5C2C43 (configuration not stated) : 8.95
O=C(O)CCC1COc2ccccc2O1 (configuration not stated) : -8.35
COC1=C(C(=O)c2ccc(OC)c(OC)c2)COC1=O : -13.3
[Cl][Ge]([Cl])([c]1ccccc1)[c]1ccccc1 : 20.9

Please look at the items below and tell me growth inhibition for each one, in order.
1. Cc1ccc(N)c(C#N)c1
2. CN(C)c1ccc(N=Nc2cccc3ncccc23)cc1
3. CCOC(=O)C1CCCc2sc(N)c(C#N)c21 (configuration not stated)
4. COc1cc(/C=N/N2CC(=O)N(c3ccccc3)CC2=O)cc(OC)c1

[11.7, 26.6, -13.8, 18.1]
